pIC50 for assorted molecules
# measured.target: full length Keap1 protein / full length NRF2 protein (Homo sapiens)
# Construct: full length NRF2 protein and full length Keap1 protein (Keap1 exists a dimer) are used; His
# Sequence (Q14145 whole entry): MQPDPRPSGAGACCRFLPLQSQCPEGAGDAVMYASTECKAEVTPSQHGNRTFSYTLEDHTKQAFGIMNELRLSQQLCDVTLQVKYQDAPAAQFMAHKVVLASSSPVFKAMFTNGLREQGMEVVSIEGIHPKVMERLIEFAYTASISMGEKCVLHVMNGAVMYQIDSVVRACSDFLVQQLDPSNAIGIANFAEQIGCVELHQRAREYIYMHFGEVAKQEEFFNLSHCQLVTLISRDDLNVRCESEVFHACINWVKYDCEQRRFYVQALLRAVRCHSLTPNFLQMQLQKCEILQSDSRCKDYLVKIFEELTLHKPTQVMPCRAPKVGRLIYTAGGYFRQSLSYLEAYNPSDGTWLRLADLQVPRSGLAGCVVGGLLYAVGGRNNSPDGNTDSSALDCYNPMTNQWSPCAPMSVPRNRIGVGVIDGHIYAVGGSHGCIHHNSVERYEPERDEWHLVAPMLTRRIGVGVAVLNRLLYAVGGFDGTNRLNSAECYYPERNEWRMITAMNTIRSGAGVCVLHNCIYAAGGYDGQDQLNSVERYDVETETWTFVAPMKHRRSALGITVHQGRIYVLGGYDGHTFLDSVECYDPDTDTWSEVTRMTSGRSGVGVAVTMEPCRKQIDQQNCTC
# experiment.notes: NRF2-Keap1 TR-FRET Assay
# Format: binding
# cond: 25 nM Keap1-FlagHis and 50 nM biotin-NRF2 added
pIC50: −log10 of the molar value.

Worked examples follow.
{"molecule": "CC(C)Oc1cccc(-c2cccc(-n3ncc(C(=O)O)c3C(F)(F)F)n2)c1 [Example 66]", "measured.target": "full length Keap1 protein / full length NRF2 protein (Homo sapiens)", "pIC50": "< 4.00"}
{"molecule": "CC(Oc1cccc(-c2cccc(-n3ncc(C(=O)O)c3C3CC3c3cn(C)nn3)c2)c1)C1CCOCC1 (centres unmarked) [Example 227]", "measured.target": "full length Keap1 protein / full length NRF2 protein (Homo sapiens)", "pIC50": "7.00 to 8.00"}
{"molecule": "O=C(O)c1cnn(-c2cccc(-c3cccc(C(=O)N4CCCCCC4)c3)c2)c1C1CC1 [Example 10]", "measured.target": "full length Keap1 protein / full length NRF2 protein (Homo sapiens)", "pIC50": "5.00 to 6.00"}
{"molecule": "CCC[C@@H]1CCCCN1C(=O)c1cccc(-c2cccc(-n3ncc(C(=O)O)c3C3CC3)c2)c1F [Example 54e]", "measured.target": "full length Keap1 protein / full length NRF2 protein (Homo sapiens)", "pIC50": "5.00 to 6.00"}
{"molecule": "Cn1cc([C@@H]2C[C@H]2c2c(C(=O)O)cnn2-c2cccc(-c3cccc(-n4ncc5c4C(C)(C)CC5)c3)n2)nn1 (racemic) [Example 251]", "measured.target": "full length Keap1 protein / full length NRF2 protein (Homo sapiens)", "pIC50": "7.00 to 8.00"}
{"molecule": "CC(Oc1cccc(-c2cccc(-n3ncc(C(=O)O)c3C3CC3c3cn(C)nn3)c2)c1)c1ccccc1 (centres unmarked) [Example 235]", "measured.target": "full length Keap1 protein / full length NRF2 protein (Homo sapiens)", "pIC50": "6.00 to 7.00"}
{"molecule": "O=C(O)c1cnn(-c2cccc(-c3cccc(C(=O)N4CCCC5(CCCC5)C4)c3F)c2)c1C1CC1 [Example 35]", "measured.target": "full length Keap1 protein / full length NRF2 protein (Homo sapiens)", "pIC50": "6.00 to 7.00"}
{"molecule": "CN(C)C(=O)c1cccc(-c2cccc(-n3ncc(C(=O)O)c3C3CC(c4ccccc4)C3)c2)c1 (centres unmarked) [Example 49]", "measured.target": "full length Keap1 protein / full length NRF2 protein (Homo sapiens)", "pIC50": "4.00 to 5.00"}

// CCCC1COCCN1C(=O)c1cccc(-c2cccc(-n3ncc(C(=O)O)c3C3CC3)c2)c1F (centres unmarked) [Example 27] : pIC50 value = 6.00 to 7.00

// CCn1cc(C2CC2c2c(C(=O)O)cnn2-c2cccc(-c3cccc(C(=O)N(C)C)c3)c2)nn1 (centres unmarked) [Example 158] : pIC50 value = 5.00 to 6.00

// CCC[C@@H]1CCCCN1C(=O)c1cccc(-c2cc(C)cc(-n3ncc(C(=O)O)c3C3CC3c3cn(C)nn3)c2)c1 (some centres unmarked) [Example 154] : pIC50 value = 7.00 to 8.00

// O=C(O)c1cnn(-c2cccc(-c3cccc(-n4ncc5c4C(C4CC4)CC5)c3)c2)c1C1CC1 (centres unmarked) [Example 207] : pIC50 value = 5.00 to 6.00

// C[C@@H]1CN(Cc2cccc(-c3cccc(-n4ncc(C(=O)O)c4[C@@H]4C[C@H]4c4cn(C)nn4)c3)c2)Cc2ccccc2O1 [Example 253] : pIC50 value = 6.00 to 7.00

// CCC[C@@H]1CCCCN1C(=O)c1cccc(-c2cccc(-n3ncc(C(=O)O)c3C3CC3c3cn(C)nn3)n2)c1 (some centres unmarked) [Example 196] : pIC50 value = 7.00 to 8.00

// CCCC(COc1cccc(-c2cccc(-n3ncc(C(=O)O)c3C3CC3c3cn(C)nn3)c2)c1)C1CCCCC1 (centres unmarked) [Example 172] : pIC50 value = 5.00 to 6.00

// C[C@@H]1CCC[C@H](C)N1C(=O)c1cccc(-c2cccc(-n3ncc(C(=O)O)c3C3CC3)c2)c1F [Example 21] : pIC50 value = 6.00 to 7.00
